# Assayed target: recombinant human JAK1 kinase domain protein (Residues 854-1154) (Homo sapiens, UniProt P23458)
# Construct: human JAK1 kinase domain protein (Residues 854-1154)
# Sequence (P23458 854-1154): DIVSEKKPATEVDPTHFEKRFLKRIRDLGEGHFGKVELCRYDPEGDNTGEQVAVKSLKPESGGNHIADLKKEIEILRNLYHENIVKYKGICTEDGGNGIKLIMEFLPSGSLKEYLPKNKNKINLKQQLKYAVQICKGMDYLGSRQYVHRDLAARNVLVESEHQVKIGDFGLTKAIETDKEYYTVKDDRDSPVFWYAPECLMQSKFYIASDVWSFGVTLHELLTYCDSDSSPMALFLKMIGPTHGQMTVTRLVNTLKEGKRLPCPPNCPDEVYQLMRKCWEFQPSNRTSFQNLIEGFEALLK
# Test summary: JAK1 biochemical assay (microfluidic mobility shift, peptide phosphorylation)
# Settings: 25 μM ATP, 1 nM total JAK1; Ki calculated from Ki app (tight-binding, competitive); read-out: Biochem JAK1 Ki
pKi: −log10 of the molar value.
Quantity: pKi

CN(C)[C@H]1C[C@H](N2CC(n3nnc(Cn4cc(NC(=O)c5cnn6cccnc56)c(-c5cc(OC(F)F)ccc5OC(F)F)n4)n3)C2)C1 [Example 70]
9.19
CN1CCC(N2CC(n3nnc(Cn4cc(NC(=O)c5cnn6cccnc56)c(-c5cc(OC(F)F)ccc5OC(F)F)n4)n3)C2)CC1 [Example 38]
9.32
CN(C)CCN1CCC(n2nnc(Cn3cc(NC(=O)c4cnn5cccnc45)c(-c4cc(OC(F)F)ccc4OC(F)F)n3)n2)C1 (single isomer, unassigned) [Example 67]
9.28
CN(C)C1CCC(n2nnc(Cn3cc(NC(=O)c4cnn5cccnc45)c(-c4cc(OC(F)F)ccc4OC(F)F)n3)n2)CC1 (stereo not drawn) [Example 66]
9.39

P = CSc1ccc(OC(F)F)c(-c2nn(Cc3nnn(C4CN(CCCN(C)C)C4)n3)cc2NC(=O)c2cnn3cccnc23)c1 [Example 58]
Q = CN(C)CCn1nnnc1Cn1cc(NC(=O)c2cnn3cccnc23)c(-c2cc3c(cc2OC(F)F)NCCO3)n1 [Example 44]
For the two items P and Q , which reports the higher pKi value? Pick one and reply with its label.
P
